Values were extracted from patent US4564619A.

Below is a list of entries, each paired with its recorded Change of blood pressure value.
Experiment: Change of blood pressure, intravenous administration, anesthetized dog
Assay type: in vivo
Parameters: unit not given here
Details: femoral artery, 100 micrograms/kg
Output spec: single numeric token, no unit.

As a guide, the following entries are already answered.
COC(=O)C1=C(C)NC(C)=C(C(=O)OCCCCOc2ccc3c(c2)CCC(=O)N3)C1c1ccccc1Cl (stereo not shown) : -52
COC(=O)C1=C(C)NC(C)=C(C(=O)OCCCOc2cccc3c2CCC(=O)N3)C1c1cccc([N+](=O)[O-])c1 (stereo not shown) : -34
COC(=O)C1=C(C)NC(C)=C(C(=O)OCCOc2ccc3c(c2)CCC(=O)N3)C1c1ccccc1[N+](=O)[O-] (stereo not shown) : -28
COC(=O)C1=C(C)NC(C)=C(C(=O)OCCN(C(=O)CCCOc2ccc3[nH]c(=O)ccc3c2)C2CCCCC2)C1c1ccccc1 (stereo not shown) : -9

Answer with reported Change of blood pressure of COC(=O)C1=C(C)NC(C)=C(C(=O)OCCOc2ccc3[nH]c(=O)ccc3c2)C1c1cccc([N+](=O)[O-])c1 (stereo not shown)
-13

Give the reported Change of blood pressure for this compound. C=CCOc1ccc(OCCCCOC(=O)C2=C(C)NC(C)=C(C(=O)OC)C2c2cccc([N+](=O)[O-])c2)c2c1NC(=O)CC2 (stereo not shown)
-55

Answer with reported Change of blood pressure of COC(=O)C1=C(C)NC(C)=C(C(=O)OCCOc2cccc3c2CCC(=O)N3)C1c1cccc([N+](=O)[O-])c1 (stereo not shown)
-21

====

The entries below come with measured Change of blood pressure values attached.
Assay: Change of blood pressure, intravenous administration, anesthetized dog
Format: in vivo
Set-up: unit not given here
Conditions: femoral artery, 300 micrograms/kg
Hey, just send me the number, nothing else.

Previously resolved entries follow.
COC(=O)C1=C(C)NC(C)=C(C(=O)OCCCOc2ccc3[nH]c(=O)ccc3c2)C1c1cccc([N+](=O)[O-])c1 (stereo not shown) : -33
COC(=O)C1=C(C)NC(C)=C(C(=O)OCCN(C(=O)CCCOc2ccc3[nH]c(=O)ccc3c2)C2CCCCC2)C1c1ccccc1 (stereo not shown) : -26
COC(=O)C1=C(C)NC(C)=C(C(=O)OCCOc2ccc3[nH]c(=O)ccc3c2)C1c1cccc([N+](=O)[O-])c1 (stereo not shown) : -34
COC(=O)C1=C(C)NC(C)=C(C(=O)OCCOc2cccc3c2CCC(=O)N3)C1c1cccc([N+](=O)[O-])c1 (stereo not shown) : -34
C=CCOc1ccc(OCCCOC(=O)C2=C(C)NC(C)=C(C(=O)OC)C2c2cccc([N+](=O)[O-])c2)c2c1NC(=O)CC2 (stereo not shown) : -46
COC(=O)C1=C(C)NC(C)=C(C(=O)OCCCOc2cccc3c2NC(=O)CC3)C1c1cccc([N+](=O)[O-])c1 (stereo not shown) : -36

Then this compound:
Specify Change of blood pressure for COC(=O)C1=C(C)NC(C)=C(C(=O)OCCCOc2ccc3[nH]c(=O)ccc3c2)C1c1ccccc1 (stereo not shown) and stop.
-52

====

Assay: Change of blood pressure, intravenous administration, anesthetized dog
Type: in vivo
Design: unit not given here
Conditions: femoral artery, 100 micrograms/kg
Rule for this label: TRUE means Change of blood pressure is less than -20; FALSE means Change of blood pressure is at least -20.

Reference set, count: 3
COC(=O)C1=C(C)NC(C)=C(C(=O)OCCCOc2ccc(O)c3c2CCC(=O)N3)C1c1cccc([N+](=O)[O-])c1 (stereo not shown) : FALSE
COC(=O)C1=C(C)NC(C)=C(C(=O)OCCCOc2ccc3[nH]c(=O)cc(C)c3c2)C1c1cccc([N+](=O)[O-])c1 (stereo not shown) : TRUE
COC(=O)C1=C(C)NC(C)=C(C(=O)OCC(COc2ccc3[nH]c(=O)ccc3c2)OC(C)=O)C1c1cccc([N+](=O)[O-])c1 (stereo not shown) : FALSE

# check: Change of blood pressure < -20 for CCCOc1ccc(OCCCOC(=O)C2=C(C)NC(C)=C(C(=O)OC)C2c2cccc([N+](=O)[O-])c2)c2c1NC(=O)CC2 (stereo not shown)
TRUE

Answer whether the compound COC(=O)C1=C(C)NC(C)=C(C(=O)OCCCCOc2cccc3[nH]c(=O)ccc23)C1c1cccc([N+](=O)[O-])c1 (stereo not shown) has Change of blood pressure strictly less than -20
TRUE

====

molecules and their reported Change of blood pressure
Experiment: Change of blood pressure, intravenous administration, anesthetized dog
Type: in vivo
Set-up: unit not given here
Settings: femoral artery, 300 micrograms/kg
Give your answer as a number; write no unit.

Some entries whose results are on file:
COC(=O)C1=C(C)NC(C)=C(C(=O)OCCCCOc2ccc3c(c2)CCC(=O)N3)C1c1ccccc1C (stereo not shown) : -80
COC(=O)C1=C(C)NC(C)=C(C(=O)OCCCCOc2ccc3[nH]c(=O)ccc3c2)C1c1cccc([N+](=O)[O-])c1 (stereo not shown) : -27
COC(=O)C1=C(C)NC(C)=C(C(=O)OCCCCOc2ccc3c(c2)CCC(=O)N3)C1c1ccccc1 (stereo not shown) : -47

Now for another entry.
Determine from records and report Change of blood pressure for COC(=O)C1=C(C)NC(C)=C(C(=O)OCCCCOc2ccc3[nH]c(=O)ccc3c2)C1c1ccccc1C(F)(F)F (stereo not shown)
-44

====

Assay: Change of blood pressure, intravenous administration, anesthetized dog
Format: in vivo
Set-up: unit not given here
Conditions: femoral artery, 100 micrograms/kg
Consider the cut-off -20. If the recorded Change of blood pressure is strictly smaller, the label is criterion met; if not, the label is criterion not met.

Examples with answers:
COC(=O)C1=C(C)NC(C)=C(C(=O)OCCCOc2ccc3c(c2)NC(=O)CC3)C1c1cccc([N+](=O)[O-])c1 (stereo not shown) : criterion met
COC(=O)C1=C(C)NC(C)=C(C(=O)OCCCOc2cc(=O)[nH]c3ccccc23)C1c1cccc([N+](=O)[O-])c1 (stereo not shown) : criterion not met
C#CCOc1ccc(OCCCOC(=O)C2=C(C)NC(C)=C(C(=O)OC)C2c2cccc([N+](=O)[O-])c2)c2c1NC(=O)CC2 (stereo not shown) : criterion met

Determine whether this molecule shows Change of blood pressure lower than -20 (ties excluded): COC(=O)C1=C(C)NC(C)=C(C(=O)OCCN(C(=O)CCCOc2ccc3[nH]c(=O)ccc3c2)C2CCCCC2)C1c1cccc([N+](=O)[O-])c1 (stereo not shown)
criterion not met

Take the molecule COC(=O)C1=C(C)NC(C)=C(C(=O)OCCCCOc2ccc3[nH]c(=O)ccc3c2)C1c1cccc([N+](=O)[O-])c1 (stereo not shown) and say whether its Change of blood pressure is less than -20.
criterion not met

Confirm or reject: Change of blood pressure of COC(=O)C1=C(C)NC(C)=C(C(=O)OCCCCOc2ccc3[nH]c(=O)ccc3c2)C1c1ccccc1C(F)(F)F (stereo not shown) lies strictly below -20
criterion met

Field: below-cutoff. Rule: recorded Change of blood pressure strictly less than -20. Subject: COC(=O)C1=C(C)NC(C)=C(C(=O)OCCCCOc2cccc3c2CCC(=O)N3)C1c1cccc([N+](=O)[O-])c1 (stereo not shown)
criterion met

Take the molecule COC(=O)C1=C(C)NC(C)=C(C(=O)OCCCOc2ccc3[nH]c(=O)ccc3c2)C1c1cccc([N+](=O)[O-])c1 (stereo not shown) and say whether its Change of blood pressure is less than -20.
criterion not met

Change of blood pressure strictly < -20 for this molecule? COC(=O)C1=C(C)NC(C)=C(C(=O)OCCCCOc2ccc3c(c2)CCC(=O)N3)C1c1ccccc1C(=O)OC (stereo not shown)
criterion met

Please check: Change of blood pressure for COC(=O)C1=C(C)NC(C)=C(C(=O)OCCN(C(=O)CCCOc2ccc3c(c2)CCC(=O)N3)C2CCCCC2)C1c1ccccc1[N+](=O)[O-] (stereo not shown) , strictly under -20 or not?
criterion not met

Below -20 on Change of blood pressure? Entry COC(=O)C1=C(C)NC(C)=C(C(=O)OCCCCOc2ccc3c(c2)CCC(=O)N3)C1c1ccccc1SC (stereo not shown)
criterion met

Lab note: confirm whether the reported Change of blood pressure for this molecule is below -20, equality not counting. molecule: COC(=O)C1=C(C)NC(C)=C(C(=O)OCCCOc2cccc3[nH]c(=O)ccc23)C1c1cccc([N+](=O)[O-])c1 (stereo not shown)
criterion not met

Criterion: Change of blood pressure strictly below -20. Is it met by COC(=O)C1=C(C)NC(C)=C(C(=O)OCCOc2cccc3c2NC(=O)CC3)C1c1cccc([N+](=O)[O-])c1 (stereo not shown) ?
criterion met

====

Assay: Change of blood pressure, intravenous administration, anesthetized dog
Assay type: in vivo
Design: unit not given here
Settings: femoral artery, 300 micrograms/kg
Procedure: The change of blood flow in coronary artery and the change of blood pressure were measured by a method according to Yakura et al., [Japan Journal of Pharmacology, Vol. 57, pages 380-391 (1961)] and according to Taira, et al. [Clin. Exp. Pharmacol. Physiol., Vol. 6, pages 301-316, (1976)]. […]
Entries and their Change of blood pressure values follow.
Answer with the value's number alone.

Worked examples, 4 molecules total:
COC(=O)C1=C(C)NC(C)=C(C(=O)OCCCCOc2ccc3c(c2)CCC(=O)N3)C1c1cccc([N+](=O)[O-])c1 (centres unmarked) : -54
COC(=O)C1=C(C)NC(C)=C(C(=O)OCCOc2ccc3[nH]c(=O)ccc3c2)C1c1ccccc1[N+](=O)[O-] (centres unmarked) : -32
COC(=O)C1=C(C)NC(C)=C(C(=O)OCCCOc2cccc3c2CCC(=O)N3)C1c1cccc([N+](=O)[O-])c1 (centres unmarked) : -51
COC(=O)C1=C(C)NC(C)=C(C(=O)OCCOc2ccc3c(c2)CCC(=O)N3)C1c1cccc([N+](=O)[O-])c1 (centres unmarked) : -34

Using the record for COC(=O)C1=C(C)NC(C)=C(C(=O)OCCOc2ccc3c(c2)CCC(=O)N3)C1c1ccccc1[N+](=O)[O-] (centres unmarked) , state its measured Change of blood pressure.
-42

# return recorded Change of blood pressure for input COC(=O)C1=C(C)NC(C)=C(C(=O)OCCN(C(=O)CCCOc2ccc3c(c2)CCC(=O)N3)C2CCCCC2)C1c1ccccc1[N+](=O)[O-] (centres unmarked)
-19

Specify Change of blood pressure for COC(=O)C1=C(C)NC(C)=C(C(=O)OCCCCOc2cccc3c2CCC(=O)N3)C1c1cccc([N+](=O)[O-])c1 (centres unmarked) and stop.
-76

Identify the reported Change of blood pressure for the following entry. COC(=O)C1=C(C)NC(C)=C(C(=O)OCC(COc2ccc3[nH]c(=O)ccc3c2)OC(C)=O)C1c1cccc([N+](=O)[O-])c1 (centres unmarked)
-23

Please report Change of blood pressure for the following molecule: CCCOc1ccc(OCCCOC(=O)C2=C(C)NC(C)=C(C(=O)OC)C2c2cccc([N+](=O)[O-])c2)c2c1NC(=O)CC2 (centres unmarked)
-48

Specify measured Change of blood pressure for COC(=O)C1=C(C)NC(C)=C(C(=O)OCCCCOc2ccc3c(c2)CCC(=O)N3)C1c1ccccc1SC (centres unmarked) .
-42

Look up Change of blood pressure of COC(=O)C1=C(C)NC(C)=C(C(=O)OCCCOc2ccc3c(c2)NC(=O)CC3)C1c1cccc([N+](=O)[O-])c1 (centres unmarked) and report it.
-44
